composite z-score by entry:
assay: small-molecule microarray binders of probe aNog, primary screen, biochemical, biotinylated probe, 635/667 nm fluorescence (AID 1115); conditions: higher = more signal;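 also: probe is biotinylated aNog protein used at 0.15 µg/mL for 1 h at 4 C; z-score combines 667 nm fluorescence of each spot with its signal to noise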
# print the numeric value only

CCCNC(=O)OC[C@H]1O[C@H](CCON=Cc2ccc(C(=O)N3[C@H](c4ccc(C)cc4)[C@@H](C)CC[C@H]3C(=O)OC)cc2)C=C[C@@H]1Oc1ccc(OC)cc1
-0.0234

Per the record, CO[C@H]1COC(=O)[C@@H](C)COC(=O)[C@H](COCc2ccccc2)NC(=O)CC=C[C@H]1C has composite z-score of 0.0139

Per the record, Cn1c(=O)n2n(c1=O)[C@H]1[C@H](O)[C@@H]3O[C@@H]3C(=NOCc3ccccc3)[C@H]1CC2 has composite z-score of -0.0524

Per the record, COC(=O)[C@@H]1CC[C@@H](C)[C@H](c2ccc(Br)cc2)N1 has composite z-score of -0.247

Per the record, O=c1n(-c2ccccc2)c(=O)n2n1CC[C@@H]1C(=NOCc3ccccc3)[C@H]3O[C@H]3[C@@H](O)[C@@H]12 has composite z-score of -0.113

###

assay: small-molecule microarray binders of probe aShh, primary screen, biochemical, biotinylated probe, 635/667 nm fluorescence (AID 1114); details: higher = more signal;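 also: probe is biotin-labelled aShh protein from a stem cell growth factor screen; measures binding of labelled protein to compounds printed on the slide; score merges feature fluorescence at 667 nm with signal-to-noise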
composite z-score by entry:
# print the numeric value only

C=CC1=C[C@H](O)[C@@H]2O[C@@H]2C12OCCCO2
-0.381

Switching to the query record.
Per the record, CC(=O)O[C@H]1C2=CO[C@H](C)[C@H]3[C@H]4C5=C([C@H](O)[C@H]6O[C@H]6C5=O)[C@H](OC4C)[C@@]23C(=O)[C@@H]2O[C@@H]21 (stereo partly specified) has composite z-score of 0.0804

###

molecular target: Streptavidin (Streptomyces avidinii); assay: streptavidin binders on small-molecule microarray, primary screen, artefact control for SMM compound annotation, biophysical, 635/667 nm fluorescence (AID 1147); conditions: streptavidin binding, higher = more signal;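 also: signal reflects streptavidin binding to arrayed compounds as a control protein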
composite z-score by entry:
# print the numeric value only

Look over these answered cases.
CC(CCC(=O)OC[C@H]1O[C@H](C#Cc2ccccc2)C=C[C@@H]1Oc1ccc(C)cc1)=NO[C@H](C)c1cn([C@H](CO)Cc2ccccc2)nn1
0.0184
CCCCC#C[C@@H]1C=C[C@H](Oc2cc(OC)c(OC)c(OC)c2)[C@@H](COC(=O)OCC)O1
-0.523
CCC(=O)[C@@]1(O)C(=O)N2C(=C3C(=O)OCC[C@@H]31)N(Cc1ccccc1)C(C)=C(C(=O)OC)[C@H]2c1ccccc1
0.565

Switching to the query record.
composite z-score on Streptavidin (Streptomyces avidinii) for CCOC(=O)[C@H](Cc1ccccc1)NC(=O)OC1CC(CCC2CC(CC)=NO2)OC2(CCCC(COC(=O)NCCC(C)C)O2)C1 (some centres undefined) is 0.851

###

z-score by entry:
target: NADPH oxidase 2 (Homo sapiens) (UniProt P04839); experiment: NOX2-dependent H2O2 signal modulators, primary screen, NOX inhibitor project, cell-based, HEK293-NOX2, PMA-stimulated, Amplex Red fluorescence (AID 1159); settings: 45 min, higher = more signal, called active from +8 up or from −8 down; also: test concentration not given here
Sequence (P04839 whole entry, looked up): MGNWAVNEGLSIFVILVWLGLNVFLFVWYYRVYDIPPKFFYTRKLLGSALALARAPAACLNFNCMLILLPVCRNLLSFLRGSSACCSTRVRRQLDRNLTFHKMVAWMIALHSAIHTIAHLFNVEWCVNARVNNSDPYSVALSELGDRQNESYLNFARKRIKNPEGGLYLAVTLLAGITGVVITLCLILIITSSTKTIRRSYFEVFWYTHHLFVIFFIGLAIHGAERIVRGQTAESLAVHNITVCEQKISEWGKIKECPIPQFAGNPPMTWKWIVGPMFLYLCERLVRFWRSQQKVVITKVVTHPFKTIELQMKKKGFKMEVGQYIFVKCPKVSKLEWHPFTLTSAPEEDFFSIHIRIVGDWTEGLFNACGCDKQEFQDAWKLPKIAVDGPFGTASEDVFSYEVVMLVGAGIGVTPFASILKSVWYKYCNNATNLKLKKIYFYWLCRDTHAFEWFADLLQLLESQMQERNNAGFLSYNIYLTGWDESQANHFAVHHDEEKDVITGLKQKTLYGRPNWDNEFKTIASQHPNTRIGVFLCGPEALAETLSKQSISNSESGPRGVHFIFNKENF
# print the numeric value only

Look over these answered cases.
CON=C[C@@H](C)[C@H](OCc1ccccc1)C(C)C
-0.307
CC(CCN1CCCc2nc(C)c(C)cc21)=NOC(C)CN1CCCCc2nc(C)c(C)cc21 (stereo not given)
-0.397

z-score on NADPH oxidase 2 (Homo sapiens) (UniProt P04839) for COc1ccc(COC(=O)NN=C2C[C@@H](O)[C@@H](O)[C@@H]3[C@@H]4C(=O)N(c5cccc(Oc6ccccc6)c5)C(=O)[C@@H]4CC[C@@H]23)cc1 is 1.32

z-score on NADPH oxidase 2 (Homo sapiens) (UniProt P04839) for CCOC(=O)NN=C1C[C@@H](O)[C@@H](O)[C@@H]2[C@@H]3C(=O)N(C(C)(C)C)C(=O)[C@@H]3CC[C@H]12 is -1.89

z-score on NADPH oxidase 2 (Homo sapiens) (UniProt P04839) for C[C@@H](c1ccccc1)N1C(=O)[C@H]2[C@H]3[C@H](O)[C@H](O)CC(=NO[C@@H]4O[C@H](CO)[C@@H](O)[C@H](O)[C@H]4O)[C@@H]3CC[C@H]2C1=O is -0.119

z-score on NADPH oxidase 2 (Homo sapiens) (UniProt P04839) for O=C1[C@H]2[C@H]3[C@H](O)[C@H](O)CC(=NOCc4ccccc4)[C@@H]3CC[C@H]2C(=O)N1Cc1ccc2c(c1)OCO2 is 1.09

z-score on NADPH oxidase 2 (Homo sapiens) (UniProt P04839) for COC(=O)[C@@H]1CC[C@H](C)[C@@H](c2ccc(C)cc2)N1C(=O)c1ccc(C=NO[C@H](C)c2cn([C@@H]3COC[C@H]3O)nn2)cc1 is -0.166

z-score on NADPH oxidase 2 (Homo sapiens) (UniProt P04839) for CCN1C(=O)[C@H]2[C@H]3[C@H](O)[C@H](O)CC(=NO[C@@H](C)c4cn([C@H](CO)Cc5ccccc5)nn4)[C@@H]3CC[C@H]2C1=O is 0.0799

z-score on NADPH oxidase 2 (Homo sapiens) (UniProt P04839) for CSCC[C@@H]1NC(=O)CC=C[C@@H](C)COC(=O)[C@@H](C)COC1=O is -1.13

z-score on NADPH oxidase 2 (Homo sapiens) (UniProt P04839) for C=C(C)C(=O)OCC1CN2[C@@H](CC[C@@H](C)[C@@H]2c2ccc(Br)cc2)C(=O)O1 (stereo not given in full) is -0.0685

z-score on NADPH oxidase 2 (Homo sapiens) (UniProt P04839) for CCCNC(=O)OC[C@H]1O[C@H](CCON=Cc2ccc(C(=O)N3[C@H](c4ccc(C)cc4)[C@@H](C)CC[C@H]3C(=O)OC)cc2)C=C[C@@H]1Oc1ccc(OC)cc1 is 0.725

z-score on NADPH oxidase 2 (Homo sapiens) (UniProt P04839) for CO[C@H]1COC(=O)CC=C[C@H](C)[C@@H](OC)COC(=O)[C@@H](C)NC(=O)CC=C[C@@H]1C is -0.22

z-score on NADPH oxidase 2 (Homo sapiens) (UniProt P04839) for CC(CCN1CCc2nc(-c3ccccc3)c(-c3ccccc3)cc2C1)=NOC[C@@H](O)[C@H]1O[C@@H]2OC(C)(C)O[C@@H]2[C@H]1O is -5.63

z-score on NADPH oxidase 2 (Homo sapiens) (UniProt P04839) for O=C1[C@H]2[C@H]3[C@H](O)[C@H](O)CC(=NOC[C@@H](O)COCc4ccco4)[C@H]3CC[C@H]2C(=O)N1C[C@@H]1CCCO1 is 0.276

z-score on NADPH oxidase 2 (Homo sapiens) (UniProt P04839) for COc1ccc(COC(=O)NN=C2C[C@@H](O)[C@@H](O)[C@@H]3[C@@H]4C(=O)N(C5CCCCC5)C(=O)[C@@H]4CC[C@H]23)cc1 is -0.248

z-score on NADPH oxidase 2 (Homo sapiens) (UniProt P04839) for C=Cc1ccc([C@H]2N[C@H](C(=O)O)CC[C@@H]2C)cc1 is 1.06

z-score on NADPH oxidase 2 (Homo sapiens) (UniProt P04839) for COc1ccc(O[C@H]2C=C[C@@H](c3ccccc3)O[C@@H]2CON=CC[C@@H]2C=C[C@H](OC(C)=O)[C@@H](COC(C)=O)O2)cc1 is -0.279

z-score on NADPH oxidase 2 (Homo sapiens) (UniProt P04839) for COC(=O)CC=C[C@H](C)[C@@H](OCc1cccc(Br)c1)[C@@H](C)[C@H](OC)C1CCCCC1 is -0.453

z-score on NADPH oxidase 2 (Homo sapiens) (UniProt P04839) for CON=C1[C@H]2CCn3c(=O)n(-c4ccccc4)c(=O)n3[C@H]2[C@H](O)[C@@H]2O[C@H]12 is 0.0197

z-score on NADPH oxidase 2 (Homo sapiens) (UniProt P04839) for CCOC(=O)[C@H](Cc1ccccc1)NC(=O)CCC1CC(OC(=O)NCCc2ccc(F)cc2)CC2(CCCC(COC(=O)NCC3CCCCC3)O2)O1 (stereo not given in full) is 0.102

z-score on NADPH oxidase 2 (Homo sapiens) (UniProt P04839) for CCc1cc2c(nc1CC)CCN(CCC(C)=NO[C@H](C)c1cn([C@@H]3COC[C@H]3O)nn1)C2 is -0.539

z-score on NADPH oxidase 2 (Homo sapiens) (UniProt P04839) for CCCNC(=O)OC[C@H]1O[C@H](CCON=C(C)CCC(=O)OC[C@H]2O[C@H](c3ccccc3)C=C[C@@H]2Oc2ccc(OC)cc2)C=C[C@@H]1Oc1ccc(OC)cc1 is -0.245

z-score on NADPH oxidase 2 (Homo sapiens) (UniProt P04839) for O=C1CCCC=C1C(O)CCCCBr (stereo not given) is -0.772

z-score on NADPH oxidase 2 (Homo sapiens) (UniProt P04839) for O=C1C[C@@H](O)[C@@H](O)[C@@H]2[C@@H]3C(=O)N(c4cccc(Oc5ccccc5)c4)C(=O)[C@@H]3CC[C@H]12 is -0.0166

z-score on NADPH oxidase 2 (Homo sapiens) (UniProt P04839) for CCN1C(=O)[C@H]2[C@H]3[C@H](O)[C@H](O)CC(=O)[C@@H]3CC[C@H]2C1=O is -1.19
